src = patent EP0774465A1

# Test system: MRSA 31
# ASSAY INFO: Antibacterial activity (MIC) against MRSA 31
# Type: cell-based, methicillin-resistant Staphylococcus aureus
# STATED CONDITIONS: Staphylococcus aureus, MRSA, MRSA 31, 10^6 cfu/mℓ; read-out: antibacterial activities (MIC)
READOUT KIND: MIC (µg/mL)
Give the number; µg/mL is assumed, so skip it.

The observed MIC for C[C@H](O)[C@@H]1C(=O)N2C(C(=O)O)=C(S[C@@H]3CN[C@H](CO)C3)S[C@H]12 when tested with MRSA 31 stands at 6.25

The observed MIC for C[C@H](O)[C@@H]1C(=O)N2C(C(=O)O)=C(SCCc3ccccc3)S[C@H]12 when tested with MRSA 31 stands at 6.25

The observed MIC for C[C@H](O)[C@@H]1C(=O)N2C(C(=O)O)=C(S[C@H]3CCN(CCF)C3)S[C@H]12 when tested with MRSA 31 stands at 6.25

The observed MIC for CCCSC1=C(C(=O)O)N2C(=O)[C@@H]([C@H](C)O)[C@H]2S1 when tested with MRSA 31 stands at 12.5

The observed MIC for C[C@H](O)[C@@H]1C(=O)N2C(C(=O)O)=C(SCCc3ccccn3)S[C@H]12 when tested with MRSA 31 stands at 6.25

The observed MIC for CC(C)SC1=C(C(=O)O)N2C(=O)[C@@H]([C@H](C)O)[C@H]2S1 when tested with MRSA 31 stands at 12.5

The observed MIC for C[C@H](O)[C@@H]1C(=O)N2C(C(=O)O)=C(SCc3ccc4ccccc4c3)S[C@H]12 when tested with MRSA 31 stands at 3.13

The observed MIC for CC(=N)N1CC[C@H](SC2=C(C(=O)O)N3C(=O)[C@@H]([C@H](C)O)[C@H]3S2)C1 when tested with MRSA 31 stands at 6.25
